experiment: Mouse liver microsome assay; assay type: in vitro ADME; details: female, CD-1, mouse, liver microsomes, pH 7.4
reported property: CLint scaled at 0.08 uM (mL/min/kg)

> print(dat)
                                   compound        reported.property   unit.tag  qual  endpoint.value
1  CC(C)CN1C(=O)c2ccccc2[C@H](C(=O)Nc2ccc(F)c(C#N)c2)[C@H]1c1ccc(C#N)s1 (racemic) [11l]  CLint scaled at 0.08 uM  mL/min/kg     =            44.7
2  N#Cc1cc(NC(=O)[C@H]2c3ccccc3C(=O)N(CC(F)(F)F)[C@@H]2c2cccnc2)ccc1F (relative stereo) [13i]  CLint scaled at 0.08 uM  mL/min/kg     =            33.1
3  N#Cc1cc(NC(=O)[C@H]2c3ccccc3C(=O)N(CC(F)(F)F)[C@@H]2c2cn[nH]c2)ccc1F (relative stereo) [13h]  CLint scaled at 0.08 uM  mL/min/kg     <            13.5
4  CC(C)CN1C(=O)c2ccccc2[C@H](C(=O)Nc2cccc(C#N)c2)[C@H]1c1cccs1 (racemic) [10d]  CLint scaled at 0.08 uM  mL/min/kg     =             195
5  CC(C)CN1C(=O)c2ccccc2[C@H](C(=O)Nc2ccc(F)c(C#N)c2)[C@H]1c1cn[nH]c1 (racemic) [11t]  CLint scaled at 0.08 uM  mL/min/kg     =             162

Each recorded value in this set is attributed to paper PMC5573263.
